- assay: NCI Yeast Anticancer Drug Screen. Data for the sgs1 mgt1 strain (AID 161);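 note: 0% = growth of cultures given vehicle only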
- condition: S. cerevisiae sgs1 mgt1 strain, at 50.0 µM, active compounds read high
This is part of a sample that, as a whole, favours compounds with a hit. Of some 79,000 tested, about 15% had one in any assay.
reported.property: growth inhibition (%)
// return numeric value only (unit: %, not printed)

Query: growth inhibition; subject: O=[N+]1C=CC(=NN=c2ccn([O-])cc2)C=C1 8.65

Next record, please: Cc1cccc(-c2nc(-c3cnccn3)n(Cc3ccccc3)n2)c1 -62

Next record, please: Cc1[nH]nc2c(=O)n(N)nnc12 0.35

Next record, please: C=C(C)c1ccc(B2Nc3ccccc3N2)cc1 45.6

Next record, please: COc1ccc(-c2cc(=O)c3c(O)c(OC)c(O)c(OC)c3o2)cc1OC 5.1
